Below, each entry is listed alongside its reported Acute Toxicity LD50 (LD).
Tested on: mice
condition summary: mouse, in vivo
Structures can show the parent of a compound that is named as a salt.
readout: Acute Toxicity LD50 (LD) (µmol/kg)

C#CCNC1CCc2ccc(OC(=O)N(C)Cc3ccccc3)cc21 (centres unmarked) [Compound 63] | 1300
C#CCNC1CCc2ccc(OC(=O)N(C)C)cc21 (centres unmarked) [Compound 24, mesylate] | 179
C#CCNC1CCc2ccc(OC(=O)N(C)CCCC)cc21 (centres unmarked) [Compound 81] | 920
C#CCN(C)C1CCc2cccc(OC(=O)N(C)C)c21 (centres unmarked) [Compound 32] | 68
C#CCNC1CCc2c(OC(=O)N(C)CC)cccc21 (centres unmarked) [Compound 35] | 33
C#CCNC1CCc2ccc(OC(=O)N(C)CCC)cc21 (centres unmarked) [Compound 26] | 1200
C#CCNC1CCc2c(OC(=O)N(C)C)cccc21 (centres unmarked) [Compound 34] | 3.7
C#CCNC1CCc2ccc(OC(=O)N(C)C)cc21 (centres unmarked) [Compound 23] | 255
C#CCNC1CCc2cccc(OC(=O)N(C)C)c21 (centres unmarked) [Compound 27] | 300
C#CCN(C)C1CCc2ccc(OC(=O)N(C)C)cc21 (centres unmarked) [Compound 29] | 500

* * *

Test system: mice
condition summary: mouse, in vivo
Structures can show the parent of a compound that is named as a salt.
Below, each entry is listed alongside its reported Therapeutic Ratio LD/AC.
readout: Therapeutic Ratio LD/AC

C#CCNC1CCc2c(OC(=O)N(C)CC)cccc21 (stereo not shown) [Compound 35] | 3.3
C#CCNC1CCc2ccc(OC(=O)N(C)Cc3ccccc3)cc21 (stereo not shown) [Compound 63] | 9.3
C#CCNC1CCc2ccc(OC(=O)N(C)CC)cc21 (stereo not shown) [Compound 25, HCl] | 10.8
C#CCNC1CCc2ccc(OC(=O)N(C)CCC)cc21 (stereo not shown) [Compound 26] | 9

* * *

Below, each entry is listed alongside its reported AChE Inhibition Time to peak activity t.
target entity: whole brain AChE (Mus musculus)
Sequence (P21836 32-614): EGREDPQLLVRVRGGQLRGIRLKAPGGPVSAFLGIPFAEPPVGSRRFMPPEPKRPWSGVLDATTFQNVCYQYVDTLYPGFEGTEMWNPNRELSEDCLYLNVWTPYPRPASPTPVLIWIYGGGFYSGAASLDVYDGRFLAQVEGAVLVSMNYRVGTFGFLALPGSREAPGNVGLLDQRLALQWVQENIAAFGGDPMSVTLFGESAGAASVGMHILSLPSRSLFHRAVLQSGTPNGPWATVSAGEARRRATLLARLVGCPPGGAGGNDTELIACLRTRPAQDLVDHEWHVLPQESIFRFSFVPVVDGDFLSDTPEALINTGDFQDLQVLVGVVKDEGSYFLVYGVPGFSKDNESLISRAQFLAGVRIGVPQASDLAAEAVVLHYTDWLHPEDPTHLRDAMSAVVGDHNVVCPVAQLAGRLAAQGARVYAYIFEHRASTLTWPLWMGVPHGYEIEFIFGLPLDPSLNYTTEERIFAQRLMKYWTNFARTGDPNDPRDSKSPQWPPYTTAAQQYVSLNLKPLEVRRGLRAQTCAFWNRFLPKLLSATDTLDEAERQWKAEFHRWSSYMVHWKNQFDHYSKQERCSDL
condition summary: mouse, in vivo
Where a name gives a salt, the structure may show the parent alone.
readout: AChE Inhibition Time to peak activity t

C#CCNC1CCc2ccc(OC(=O)N(C)c3ccccc3)cc21 (centres unmarked) | 60 min
CN(C)C(=O)Oc1ccc2c(c1)C(N(C)C)CC2 (centres unmarked) | 15 min
C#CCNC1CCc2ccc(OC(=O)N(C)Cc3ccccc3)cc21 (centres unmarked) | 60 to 90 min
C#CCN(C)C1CCc2cccc(OC(=O)N(C)C)c21 (centres unmarked) | 15 min
C#CCN(C)C1CCc2ccc(OC(=O)N(C)C)cc21 (centres unmarked) | 15 min
CCN(C)C(=O)Oc1cccc2c1C(N)CC2 (centres unmarked) | 60 min
CCN(C)C(=O)Oc1ccc2c(c1)C(N)CC2 (centres unmarked) [Compound 3, 6-(N-Me,N-Et Carbamyloxy) aminoindan HCl] | 60 to 90 min
C#CCNC1CCc2cccc(OC(=O)N(C)C)c21 (centres unmarked) | 15 min
CN(C)C(=O)Oc1ccc2c(c1)C(N)CC2 (centres unmarked) | 30 min
C#CCNC1CCc2ccc(OC(=O)N(C)CC)cc21 (centres unmarked) [Compound 25, HCl] | 60 min
C#CCNC1CCc2ccc(OC(=O)N(C)CCC)cc21 (centres unmarked) | 30 to 60 min
CNC1CCc2ccc(OC(=O)N(C)C)cc21 (centres unmarked) | 15 to 30 min
C#CCNC1CCc2c(OC(=O)N(C)C)cccc21 (centres unmarked) | 30 min
CCN(C)C(=O)Oc1ccc2c(c1)C(NC)CC2 (centres unmarked) | 60 to 90 min
CNC1CCc2cccc(OC(=O)N(C)C)c21 (centres unmarked) | 15 min
C#CCNC1CCc2ccc(OC(=O)N(C)CCCC)cc21 (centres unmarked) | 90 min
C#CCNC1CCc2c(OC(=O)N(C)CC)cccc21 (centres unmarked) | 60 min

* * *

target entity: MAO-A (Rattus norvegicus)
protocol: Inhibition of MAO activity in vitro, 5-HT as substrate
Type: biochemical
Set-up: The MAO enzyme source was a homogenate of rat brain in 0.3M sucrose; from tissue; host or cells: rat brain homogenate, 600 g supernatant
condition summary: MAO-A Inhibition In vitro IC50, rat brain homogenate, 5-HT substrate
pIC50: −log10 of the molar value. Structures can show the parent of a compound that is named as a salt.
readout: pIC50

CCN(C)C(=O)Oc1ccc2c(c1)C(N)CC2 (stereo not shown) [Compound 3, 6-(N-Me,N-Et Carbamyloxy) aminoindan HCl] | 4.90
CN(C)C(=O)Oc1ccc2c(c1)C(N)CC2 (stereo not shown) | 4.12
C#CCNC1CCc2c(OC(=O)N(C)C)cccc21 (stereo not shown) | 6.30
C#CCN(C)C1CCc2ccc(OC(=O)N(C)C)cc21 (stereo not shown) | 4.40
C#CCNC1CCc2ccc(OC(=O)N(C)C)cc21 (stereo not shown) [Compound 24, mesylate] | 3.07
CCNC1CCc2ccc(OC(=O)N(C)C)cc21 (stereo not shown) | 3.22

* * *

target entity: whole brain AChE (Mus musculus)
condition summary: mouse, in vivo
readout: AChE Inhibition Time to return to 50% of peak t

C#CCNC1CCc2cccc(OC(=O)N(C)C)c21 (centres unmarked) | >60 min
C#CCN(C)C1CCc2ccc(OC(=O)N(C)C)cc21 (centres unmarked) | >60 min
C#CCNC1CCc2ccc(OC(=O)N(C)CCCC)cc21 (centres unmarked) | >120 min
C#CCNC1CCc2ccc(OC(=O)N(C)C)cc21 (centres unmarked) | 70 min
CCN(C)C(=O)Oc1ccc2c(c1)C(NC)CC2 (centres unmarked) | >180 min

* * *

Tested on: mice
condition summary: mice, within 6 hours after administration
Counter-ions that a name gives are not always drawn.
Below, each entry is listed alongside its reported Acute Toxicity LD50 (LD).
readout: Acute Toxicity LD50 (LD) (µmol/kg)

CNC1CCc2ccc(OC(=O)N(C)C)cc21 (centres unmarked) [Compound 8] | 87
C#CCNC1CCc2ccc(OC(=O)N(C)CC)cc21 (centres unmarked) [Compound 25, HCl] | 1400
CCN(C)C(=O)Oc1ccc2c(c1)C(N)CC2 (centres unmarked) [Compound 3, 6-(N-Me,N-Et Carbamyloxy) aminoindan HCl] | 950
CCN(C)C(=O)Oc1cccc2c1C(N)CC2 (centres unmarked) [Compound 5] | 840
CNC1CCc2cccc(OC(=O)N(C)C)c21 (centres unmarked) [Compound 9] | 93
CCN(C)C(=O)Oc1ccc2c(c1)C(NC)CC2 (centres unmarked) [Compound 10] | 740
CN(C)C(=O)Oc1ccc2c(c1)C(N)CC2 (centres unmarked) [Compound 1] | 83.8

* * *

target entity: MAO-A (Mus musculus, UniProt Q64133)
Construct: from tissue; host or cells: mouse brain
Sequence (Q64133 whole entry): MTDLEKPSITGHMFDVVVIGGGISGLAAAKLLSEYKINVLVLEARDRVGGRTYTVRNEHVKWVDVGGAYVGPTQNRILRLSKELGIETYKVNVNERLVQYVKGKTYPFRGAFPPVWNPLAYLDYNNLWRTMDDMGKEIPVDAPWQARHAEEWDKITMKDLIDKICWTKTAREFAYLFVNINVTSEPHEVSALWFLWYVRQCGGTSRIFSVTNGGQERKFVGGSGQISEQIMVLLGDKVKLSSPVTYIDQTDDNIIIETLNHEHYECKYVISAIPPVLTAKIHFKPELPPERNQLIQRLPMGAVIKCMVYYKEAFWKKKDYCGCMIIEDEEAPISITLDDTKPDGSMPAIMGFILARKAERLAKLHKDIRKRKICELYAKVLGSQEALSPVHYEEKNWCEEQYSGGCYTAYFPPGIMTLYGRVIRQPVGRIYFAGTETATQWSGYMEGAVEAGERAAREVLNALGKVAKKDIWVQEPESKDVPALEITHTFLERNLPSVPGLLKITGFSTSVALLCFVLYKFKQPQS
protocol: Inhibition of MAO activity ex vivo (brain)
Type: in vivo, mice
condition summary: mice, brain tissue
Counter-ions that a name gives are not always drawn.
readout: MAO-A Inhibition Ex vivo ED50

C#CCNC1CCc2ccc(OC(=O)N(C)C)cc21 (single isomer, unassigned) [Compound 55] | >100 µmol/kg
C#CCNC1CCc2ccc(OC(=O)N(C)c3ccccc3)cc21 (centres unmarked) | >>200 μmoles/kg
C#CCN(C)C1CCc2ccc(OC(=O)N(C)C)cc21 (centres unmarked) | 50 µmol/kg
C#CCN(C)C1CCc2cccc(OC(=O)N(C)C)c21 (centres unmarked) | >>20 μmoles/kg
C#CCNC1CCc2ccc(OC(=O)N(C)C)cc21 (centres unmarked) [Compound 24, mesylate] | >120 µmol/kg

* * *

target entity: MAO-B (Rattus norvegicus, UniProt P19643)
Sequence (P19643 whole entry): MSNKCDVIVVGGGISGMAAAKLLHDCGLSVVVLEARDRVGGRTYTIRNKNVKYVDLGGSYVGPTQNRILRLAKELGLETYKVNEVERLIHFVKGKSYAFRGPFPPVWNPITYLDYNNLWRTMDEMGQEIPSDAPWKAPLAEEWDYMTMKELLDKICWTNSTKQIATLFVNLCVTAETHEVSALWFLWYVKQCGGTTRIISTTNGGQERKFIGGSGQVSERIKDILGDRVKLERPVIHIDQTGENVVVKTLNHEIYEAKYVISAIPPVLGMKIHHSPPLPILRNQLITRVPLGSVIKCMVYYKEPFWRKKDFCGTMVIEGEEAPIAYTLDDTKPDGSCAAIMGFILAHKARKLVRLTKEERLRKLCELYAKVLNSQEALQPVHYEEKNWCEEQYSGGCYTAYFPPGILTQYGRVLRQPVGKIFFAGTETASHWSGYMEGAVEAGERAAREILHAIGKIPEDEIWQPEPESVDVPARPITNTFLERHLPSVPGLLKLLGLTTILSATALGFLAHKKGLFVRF
protocol: Inhibition of MAO activity in vitro, PEA as substrate
Type: biochemical
Parameters: The MAO enzyme source was a homogenate of rat brain in 0.3M sucrose; from tissue; host or cells: rat brain homogenate, 600 g supernatant
condition summary: MAO-B Inhibition In vitro IC50, rat brain homogenate
readout: IC50

C#CCN(CC)C1CCc2ccc(OC(=O)N(C)C)cc21 (centres unmarked) | > 1 mM
CCNC1CCc2ccc(OC(=O)N(C)C)cc21 (centres unmarked) | > 1 mM
C#CCNC1CCc2cccc(OC(=O)N(C)C)c21 (centres unmarked) | > 1 mM
CN(C)C(=O)Oc1ccc2c(c1)C(N)CC2 (centres unmarked) | > 1 mM
C#CCNC1CCc2ccc(OC(=O)N(C)CCCCCC)cc21 (centres unmarked) | > 1 mM

* * *

target entity: MAO-A (Rattus norvegicus, UniProt P21396)
Sequence (P21396 whole entry): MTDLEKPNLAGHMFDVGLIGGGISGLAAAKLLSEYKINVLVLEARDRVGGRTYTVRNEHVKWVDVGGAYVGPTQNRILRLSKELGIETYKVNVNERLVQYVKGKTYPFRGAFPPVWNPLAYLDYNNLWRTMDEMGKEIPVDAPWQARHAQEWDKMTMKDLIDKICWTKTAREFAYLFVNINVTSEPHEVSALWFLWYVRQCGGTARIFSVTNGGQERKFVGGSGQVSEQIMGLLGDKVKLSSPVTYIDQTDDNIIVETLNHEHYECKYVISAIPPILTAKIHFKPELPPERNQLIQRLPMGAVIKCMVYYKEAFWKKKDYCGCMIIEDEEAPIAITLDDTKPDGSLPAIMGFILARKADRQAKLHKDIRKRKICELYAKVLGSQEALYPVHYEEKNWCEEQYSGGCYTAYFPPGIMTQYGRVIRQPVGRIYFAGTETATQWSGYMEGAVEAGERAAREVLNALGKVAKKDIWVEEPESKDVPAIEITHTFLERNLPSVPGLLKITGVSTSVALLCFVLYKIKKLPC
protocol: Inhibition of MAO activity in vitro, 5-HT as substrate
Format: biochemical
Design: The MAO enzyme source was a homogenate of rat brain in 0.3M sucrose; from tissue; host or cells: rat brain homogenate, 600 g supernatant
condition summary: MAO-A Inhibition In vitro IC50, rat brain homogenate, 5-HT substrate
Experimental: Substrate concentrations used were 50 μM (PEA) and 1 mM (5-HT).
Below, each entry is listed alongside its reported IC50.
readout: IC50

C#CCNC1CCc2c(OC(=O)N(C)CC)cccc21 (stereo not shown) | < 1 µM
C#CCN(CC)C1CCc2ccc(OC(=O)N(C)C)cc21 (stereo not shown) | > 1000 µM
C#CCNC1CCc2ccc(OC(=O)N(C)CCCCCC)cc21 (stereo not shown) | > 1000 µM
C#CCNC1CCc2cccc(OC(=O)N(C)C)c21 (stereo not shown) | > 1000 µM
